Please go through the items and note down their GI50.
- Tested on: HT29 colon
- measurementDescription: NCI tumour cell line growth inhibition, 48 h

Fetch value of GI50 on HT29 colon for Cc1ccc(N(/C=C/C(=O)C(F)(F)F)CC(=O)c2ccc(Cl)c(Cl)c2)cc1 .
4.73 µM

Fetch value of GI50 on HT29 colon for CSC(=NC#N)S/C=C/C(=O)c1cccc2ccccc12 .
53.9 µM

Fetch value of GI50 on HT29 colon for CC(=O)Oc1ccccc1C(=O)NCCC[Se]C#N .
3.51 µM

Fetch value of GI50 on HT29 colon for NC(=NCCO)c1ccc(N2CCCN(c3ccc(C(N)=NCCO)cc3)CC2)cc1 .
> 100 µM
